Source listed as ChEMBL document CHEMBL1149790.

PROTOCOL_DETAILS: Cytotoxicity against human HEL cells assessed as alteration of cell morphology
Assay type: cell-based
REPORTED_PROPERTY: MCC

Known results for molecules:
C=CCn1c(-c2ccc(NC(=S)Nc3ccccc3)cc2)n[nH]c1=S    80 µg/mL
CNC(=S)Nc1ccc(-c2n[nH]c(=S)n2-c2ccccc2)cc1    400 µg/mL

Quote MCC reported for C=CCNC(=S)Nc1ccc(OCc2n[nH]c(=S)n2C)cc1 please.
> 400 µg/mL

Note MCC for the molecule shown: CCn1c(COc2ccc(NC(=S)Nc3ccccc3)cc2)n[nH]c1=S
400 µg/mL

Determine from records and report MCC for C=CCNC(=S)Nc1ccc(-c2n[nH]c(=S)n2CCCCCC)cc1
80 µg/mL

* * *

Test system: Human immunodeficiency virus 1
PROTOCOL_DETAILS: Antiviral activity against HIV1 3B in human MT4 cells assessed as protection against virus-induced cytopathogenicity by MTT assay
Type: functional, organism-based
CONDITION: Human immunodeficiency virus 1, 3B, MT4
Form field: IC50 (one value per entry).

Known results for molecules:
CNC(=S)Nc1ccc(-c2nnc(SCc3ccccc3)n2C)cc1    > 75.4 µg/mL
CCn1c(COc2ccc(NC(=S)Nc3ccccc3)cc2)n[nH]c1=S    > 27.2 µg/mL
C=CCn1c(COc2ccc(NC(=S)NC)cc2)n[nH]c1=S    > 101 µg/mL

As a next step, examine the molecule that follows.
Please give measured IC50 of the following entry: Cn1c(-c2ccc(NC(=S)Nc3ccccc3)cc2)n[nH]c1=S
> 42.8 µg/mL

* * *

Tested on: Mammalian orthoreovirus 1
PROTOCOL_DETAILS: Antiviral activity against Reo virus 1 in african green monkey Vero cells assessed as reduction of virus-induced cytopathogenicity
Type: functional
REPORTED_PROPERTY: MIC

Please supply the value of reported MIC for the item CCCCCCNC(=S)Nc1ccc(-c2n[nH]c(=S)n2CCCCCC)cc1
> 3.2 µg/mL

Item C=CCn1c(COc2ccc(NC(=S)NC)cc2)n[nH]c1=S : provide MIC
> 80 µg/mL

Kindly indicate its recorded MIC. Item: C=CCNC(=S)Nc1ccc(-c2n[nH]c(=S)n2CCc2ccccc2)cc1
> 80 µg/mL

Indicate the recorded MIC value for this molecule: C=CCNC(=S)Nc1ccc(-c2n[nH]c(=S)n2CC=C)cc1
> 80 µg/mL

Item Cn1c(-c2ccc(NC(=S)Nc3ccccc3)cc2)n[nH]c1=S : provide MIC
> 80 µg/mL

Specify reported MIC for the molecule shown: CCNC(=S)Nc1ccc(OCc2n[nH]c(=S)n2CC)cc1
> 80 µg/mL

Return value of MIC for input CNC(=S)Nc1ccc(OCc2n[nH]c(=S)n2-c2ccccc2)cc1 , no commentary.
> 80 µg/mL

Annotate the molecule C=CCNC(=S)Nc1ccc(-c2n[nH]c(=S)n2-c2ccccc2)cc1 with its measured MIC.
> 400 µg/mL

Could you please provide reported MIC for C=CCn1c(COc2ccc(N)cc2)n[nH]c1=S ? Thanks!
> 80 µg/mL

Tell me measured MIC for C=CCNC(=S)Nc1ccc(-c2n[nH]c(=S)n2CC)cc1 please.
> 80 µg/mL

Identify the reported MIC for the following entry. C=CCNC(=S)Nc1ccc(-c2nnc(SCc3ccc(Cl)cc3Cl)n2-c2ccccc2)cc1
> 16 µg/mL
